Taken from PubChem BioAssay AID720486.

Target Of Assay: Single-stranded DNA-binding protein (Escherichia coli (strain K12)) (UniProt P0AGE0)
Sequence (P0AGE0 whole entry, looked up): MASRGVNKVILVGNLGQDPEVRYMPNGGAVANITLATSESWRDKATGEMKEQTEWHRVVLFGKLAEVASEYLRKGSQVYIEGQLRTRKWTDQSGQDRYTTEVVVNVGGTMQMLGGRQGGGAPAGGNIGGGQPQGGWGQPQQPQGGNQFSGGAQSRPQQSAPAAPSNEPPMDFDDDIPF
Procedure Details: E. coli SSB-DNA binding inhibitors, counter-screen for HCV NS3 helicase inhibitor project, biochemical, fluorescence polarization, selected ChemBridge compounds (AID 720486);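 note: displacers lower Cy5 polarization so higher inhibition means more SSB displaced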
Experimental Conditions: E. coli SSB binding Cy5-dT15, fluorescence polarization; at 100 µM; hits give high values
Some of the results follow.
Recorded Endpoint: inhibition (%)
Answer in %, number only, no unit symbol.

Examples with answers:
O=C1NC(=O)C(=Cc2cc([N+](=O)[O-])cc(Br)c2O)C(=O)N1 51.5
COc1cc(/C(O)=C(\C#N)c2nc3ccccc3n2C)cc(OC)c1OC 10.2
CCN(CC)c1ccc(NC(=O)/C(=C\c2ccccc2)NC(C)=O)cc1 55.1
CCN(CC)c1ccc(C=C2C(=O)N(C)C(=O)N(C)C2=O)c(O)c1 30.8
O=c1c2c(nc3cc(-c4cccc(F)c4)[nH]n13)CCS2 84.2

Returns the measured inhibition for the input compound. Input: "COc1ccc(C(=O)Oc2ccc3oc(=O)cc(C)c3c2)cc1OC"
12.6

Which inhibition is reported for this compound? "CC(C)(C)N1C(=O)NC(=O)C(=Cc2cccs2)C1=O"
11.4

Fill blank: measured inhibition of the compound "COc1ccc(N2C(=O)C=CC2=O)c([N+](=O)[O-])c1" is ____.
-5.58

Can you share its inhibition? I mean this compound: "Cc1ccc(C(=O)C[n+]2cc(-c3ccccc3)n3c2CCCCC3)cc1"
5.34

So what does the record say about inhibition for "CCOc1ccc(C=C2C(=O)NC(=O)NC2=O)cc1Cl" ?
19.9
